Reported pIC50 values are given for each entry in this list.
molecular target: SIGMA RECEPTOR (Cavia porcellus, UniProt Q60492); construct: Two milliter aliquots of the brain membrane preparation, containing 1.7 mg of protein; tissue Pel-Freeze (Rogers, Arkansas); host or cells: guinea-pig brains plus cerebella, membranes; assay: Sigma receptor binding assay ([3H]-d-SKF-10,047 displacement, brain membranes); design: species or system guinea-pig (male Hartley); conditions: Table 1; mean ± error (n); read-out: SIGMA RECEPTOR IC50
Sequence (Q60492 whole entry): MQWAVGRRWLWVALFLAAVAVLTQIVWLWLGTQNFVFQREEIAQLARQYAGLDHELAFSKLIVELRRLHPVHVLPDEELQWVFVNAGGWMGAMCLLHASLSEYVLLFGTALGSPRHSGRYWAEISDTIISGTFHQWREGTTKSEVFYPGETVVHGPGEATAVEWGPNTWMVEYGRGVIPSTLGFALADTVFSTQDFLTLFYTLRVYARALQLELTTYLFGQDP
pIC50: −log10 of the molar value. Structures can show the parent of a compound that is named as a salt.

[
  {
    "Molecule": "C[N+](C)(C)CCOC(=O)C1(c2ccccc2)CCCCC1 [Compound 20]",
    "Bound operator": "=",
    "pIC50": 4.91
  },
  {
    "Molecule": "C[N+]1(CCOC(=O)C2(c3ccccc3)CCCCC2)CCCC1 [Compound 9]",
    "Bound operator": "=",
    "pIC50": 6.62
  },
  {
    "Molecule": "CCN(CC)CC1(c2ccccc2)CCCCC1 [Compound 14]",
    "Bound operator": "=",
    "pIC50": 6.68
  },
  {
    "Molecule": "CC[N+](C)(CC)CCOC(=O)C1(c2ccccc2)CCCCC1 [Compound 16]",
    "Bound operator": "=",
    "pIC50": 5.65
  },
  {
    "Molecule": "CN(C)CC1(c2ccccc2)CCCCC1 [Compound 18]",
    "Bound operator": "=",
    "pIC50": 5.38
  },
  {
    "Molecule": "c1ccc(C2(CN3CCOCC3)CCCCC2)cc1 [Compound 11]",
    "Bound operator": "=",
    "pIC50": 6.15
  },
  {
    "Molecule": "c1ccc(C2(CCN3CCCC3)CCCCC2)cc1 [Compound 7]",
    "Bound operator": "=",
    "pIC50": 6.85
  },
  {
    "Molecule": "C[N+]1(CCOC(=O)C2(c3ccccc3)CCCCC2)CCCCC1 [Compound 4]",
    "Bound operator": "<",
    "pIC50": 4.60
  },
  {
    "Molecule": "c1ccc(C2(CN3CCCC3)CCCCC2)cc1 [Compound 6]",
    "Bound operator": "=",
    "pIC50": 5.32
  },
  {
    "Molecule": "O=C(OCCN1CCCCC1)C1(c2ccccc2)CCCCC1 [Compound 3, hydrochloride]",
    "Bound operator": "=",
    "pIC50": 7.62
  }
]

* * *

Reported IC50 values are given for each entry in this list.
target: PCP RECEPTOR; assay: PCP receptor binding assay ([3H]-TCP displacement, brain membranes); set-up: species or system guinea-pig (male Hartley); settings: Table 2, aryl ring substituents; read-out: PCP RECEPTOR IC50

[
  {
    "Molecule": "Oc1cccc(C2(CN3CCCCC3)CCCCC2)c1 [Compound 21]",
    "IC50": "> 25 µM"
  },
  {
    "Molecule": "Cc1ccc(C2(CN3CCCCC3)CCCCC2)cc1 [Compound 23]",
    "IC50": "> 25 µM"
  },
  {
    "Molecule": "COc1ccc(C2(CN(C)C)CCCCC2)cc1OC [Compound 43]",
    "IC50": "> 25 µM"
  },
  {
    "Molecule": "O=[N+]([O-])c1ccc(C2(CN3CCCCC3)CCCCC2)cc1 [Compound 24]",
    "IC50": "> 25 µM"
  },
  {
    "Molecule": "COc1ccc(C2(CN3CCCC3)CCCCC2)cc1OC [Compound 35]",
    "IC50": "> 25 µM"
  },
  {
    "Molecule": "CN(C)CC1(c2ccccc2)CCCCC1 [Compound 18]",
    "IC50": "> 25 µM"
  },
  {
    "Molecule": "COc1cccc(C2(CN(C)C)CCCCC2)c1 [Compound 42]",
    "IC50": "> 25 µM"
  },
  {
    "Molecule": "Cc1ccc(C2(CN(C)C)CCCCC2)cc1 [Compound 41]",
    "IC50": "> 25 µM"
  },
  {
    "Molecule": "c1ccc(C2(CN3CCCCC3)CCCCC2)cc1 [Compound 2]",
    "IC50": "1.83 µM"
  },
  {
    "Molecule": "CCN(CC)CC1(c2ccc([N+](=O)[O-])cc2)CCCCC1 [Compound 39]",
    "IC50": "> 25 µM"
  },
  {
    "Molecule": "COc1cccc(C2(CN3CCCC3)CCCCC2)c1 [Compound 33]",
    "IC50": "0.552 µM"
  },
  {
    "Molecule": "Clc1cccc(C2(CN3CCCC3)CCCCC2)c1 [Compound 32]",
    "IC50": "0.867 µM"
  },
  {
    "Molecule": "O=[N+]([O-])c1ccc(C2(CN3CCCC3)CCCCC2)cc1 [Compound 31]",
    "IC50": "> 25 µM"
  },
  {
    "Molecule": "CCN(CC)CC1(c2ccccc2)CCCCC1 [Compound 14]",
    "IC50": "> 25 µM"
  },
  {
    "Molecule": "COc1ccc(C2(CN3CCCC3)CCCCC2)cc1 [Compound 34]",
    "IC50": "> 25 µM"
  },
  {
    "Molecule": "Oc1cccc(C2(CN3CCCC3)CCCCC2)c1 [Compound 29]",
    "IC50": "1.32 µM"
  },
  {
    "Molecule": "Clc1cccc(C2(CN3CCCCC3)CCCCC2)c1 [Compound 25]",
    "IC50": "1.83 µM"
  },
  {
    "Molecule": "COc1cccc(C2(CN3CCOCC3)CCCCC2)c1 [Compound 37]",
    "IC50": "> 25 µM"
  },
  {
    "Molecule": "Oc1ccc(C2(CN3CCCC3)CCCCC2)cc1 [Compound 30]",
    "IC50": "> 25 µM"
  },
  {
    "Molecule": "COc1ccc(C2(CN3CCCCC3)CCCCC2)cc1 [Compound 27]",
    "IC50": "> 25 µM"
  },
  {
    "Molecule": "COc1cccc(C2(CN3CCCCC3)CCCCC2)c1 [Compound 26]",
    "IC50": "> 25 µM"
  },
  {
    "Molecule": "c1ccc(C2(CN3CCOCC3)CCCCC2)cc1 [Compound 11]",
    "IC50": "> 25 µM"
  }
]

* * *

target: PCP RECEPTOR; experiment: PCP receptor binding assay ([3H]-TCP displacement, brain membranes); parameters: species or system guinea-pig (male Hartley); conditions: read-out: IC50 / potency for PCP receptors
pIC50: −log10 of the molar value. Counter-ions that a name gives are not always drawn.
Reported pIC50 values are given for each entry in this list.

[
  {
    "Compound": "O=C(OCCN1CCOCC1)C1(c2ccccc2)CCCCC1 [Compound 12, hydrochloride]",
    "Measured target": "PCP RECEPTOR",
    "pIC50": "> 4.00"
  },
  {
    "Compound": "O=C(OCCN1CCCC1)C1(c2ccccc2)CCCCC1 [Compound 8, hydrochloride]",
    "Measured target": "PCP RECEPTOR",
    "pIC50": "~4.19"
  }
]

* * *

biological target: SIGMA RECEPTOR (Cavia porcellus, UniProt Q60492); construct: Two milliter aliquots of the brain membrane preparation, containing 1.7 mg of protein; tissue Pel-Freeze (Rogers, Arkansas); host or cells: guinea-pig brains plus cerebella, membranes; assay: Sigma receptor binding assay ([3H]-d-SKF-10,047 displacement, brain membranes); set-up: species or system guinea-pig (male Hartley); settings: Table 1; slope of dose response curve
Counter-ions that a name gives are not always drawn.
Define the label as Satisfied when SIGMA RECEPTOR SLOPE is strictly less than 0.7 and as Not satisfied in all remaining cases.

[
  {
    "Compound": "C[N+](C)(C)CCOC(=O)C1(c2ccccc2)CCCCC1",
    "Measured target": "SIGMA RECEPTOR (Cavia porcellus, UniProt Q60492)",
    "Discrete label": "Not satisfied"
  },
  {
    "Compound": "CCN(CC)C1(c2ccccc2)CCCCC1 [Compound 13, N,N-diethyl-1-phenylcyclohexylamine, reference compound]",
    "Measured target": "SIGMA RECEPTOR (Cavia porcellus, UniProt Q60492)",
    "Discrete label": "Satisfied"
  },
  {
    "Compound": "CN(C)CCOC(=O)C1(c2ccccc2)CCCCC1.Cl",
    "Measured target": "SIGMA RECEPTOR (Cavia porcellus, UniProt Q60492)",
    "Discrete label": "Satisfied"
  },
  {
    "Compound": "c1ccc(C2(N3CCCC3)CCCCC2)cc1 [Compound 5, 1-(1-phenylcyclohexyl)pyrrolidine, reference compound]",
    "Measured target": "SIGMA RECEPTOR (Cavia porcellus, UniProt Q60492)",
    "Discrete label": "Not satisfied"
  },
  {
    "Compound": "O=C(OCCN1CCCC1)C1(c2ccccc2)CCCCC1 [Compound 8, hydrochloride]",
    "Measured target": "SIGMA RECEPTOR (Cavia porcellus, UniProt Q60492)",
    "Discrete label": "Satisfied"
  },
  {
    "Compound": "CCN(CC)CC1(c2ccccc2)CCCCC1",
    "Measured target": "SIGMA RECEPTOR (Cavia porcellus, UniProt Q60492)",
    "Discrete label": "Satisfied"
  }
]
